Tested on: S.aureus ATCC 25923
Assay: MIC by agar incorporation method, S.aureus 25923
Assay type: cell-based, Staphylococus aureus
Parameters: unit not given here
Conditions: Mueller Hinton agar, 10^4 CFU/spot, 18 hours
Readout name: In Vitro (MIC) S.aureus 25923

Use these answered entries as a reference point.
{"Compound": "CC(=O)NC[C@H]1CN(c2ccc(N3CCC(NCc4ccc([N+](=O)[O-])o4)CC3)c(F)c2)C(=O)O1 [Compound No. 86]", "Numeric value": 1}
{"Compound": "CC(=O)NC[C@H]1CN(c2ccc(N3CCN(Cc4ccc([N+](=O)[O-])n4C)CC3)c(F)c2)C(=O)O1 [Compound No. 12]", "Numeric value": 4}

I = CC(=O)NC[C@H]1CN(c2ccc(N3CCN(C(=O)C=Cc4ccc([N+](=O)[O-])s4)CC3)c(F)c2)C(=O)O1 [Compound No. 40]
II = COc1ccc(CN2CCN(c3ccc(N4C[C@H](CNC(C)=O)OC4=O)cc3F)CC2)o1 [Compound No. 15]
III = CC(=O)NC[C@H]1CN(c2ccc(N3CCN(Cc4coc([N+](=O)[O-])c4)CC3)c(F)c2)C(=O)O1 [Compound No. 8]
IV = CC(=O)NC[C@H]1CN(c2ccc(N3CCC(CN(C)Cc4ccc([N+](=O)[O-])o4)CC3)c(F)c2)C(=O)O1 [Compound No. 95]
# ascending order, key=In Vitro (MIC) S.aureus 25923 In plain terms: list the labels in the order you were asked to. I, IV, II, III
